Exercise: for every item that follows, state its recorded Ki.
# Measurement Target: T1, human neutrophil elastase (human, UniProt P08246 30-247)
# T1 construct: also called hNE; HNE
# T1 sequence (looked up): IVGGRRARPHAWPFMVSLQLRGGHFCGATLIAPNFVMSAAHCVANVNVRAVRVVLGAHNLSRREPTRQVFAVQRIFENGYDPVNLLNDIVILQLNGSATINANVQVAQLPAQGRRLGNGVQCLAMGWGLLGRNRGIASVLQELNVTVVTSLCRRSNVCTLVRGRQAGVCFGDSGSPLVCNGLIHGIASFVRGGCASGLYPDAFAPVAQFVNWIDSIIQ
# Test Method Notes: enzyme inhibition, tight-binding model; 100 pM hNE, 0-4 nM inhibitor, 24 h incubation at 30 C, fluorogenic substrate
Where no end group is shown, it is not given here.
A number alone suffices; assume pM.

I have this binder here, DX-890 conjugated to a 30 kDa PEG moiety (conjugated at pH 7.4) (designed binder, single 30 kDa mPEG (MPEG-SPA30K) attached, mono-PEGylated; reaction at pH 7.4, headed 'Random-Site Modification' (site not determined), also called PEG30-DX-890-7.4; +30K PEG, pH 7.4) EACNLPIVRGPCIAFFPRWAFDAVKGKCVLFPYGGCQGNGNKFYSEKECREYCGVP , and I need its recorded Ki.
16

Data request, read-out Ki, for DX-890 conjugated to a 20 kDa PEG moiety (conjugated at pH 7.4) (designed binder, single 20 kDa mPEG (MPEG-SPA20K) attached, mono-PEGylated; reaction at pH 7.4, headed 'Random-Site Modification' (site not determined), also called PEG20-DX-890-7.4; +20K PEG, pH 7.4) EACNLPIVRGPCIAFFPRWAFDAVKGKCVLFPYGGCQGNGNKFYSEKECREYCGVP
8

Return reported Ki; argument: DX-890 conjugated to a 20 kDa PEG moiety (conjugated at pH 6) (designed binder, single 20 kDa mPEG (MPEG-SPA20K) attached, mono-PEGylated; reaction at pH 6.0, headed 'N-Terminal-Site Modification', also called PEG20-DX-890-6.0; +20K PEG, pH 6) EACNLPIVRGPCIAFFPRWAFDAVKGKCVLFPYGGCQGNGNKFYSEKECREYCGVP
7

Give the measured Ki of DX-890 (designed binder, disulfide (positions not given here); also: three intramolecular disulfides, pairing not given here, 56 aa, three intramolecular disulfides; also called EPI-hNE4; Native DX-890) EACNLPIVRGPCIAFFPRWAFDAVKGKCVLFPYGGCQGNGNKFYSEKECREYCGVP .
7

Data request, read-out Ki, for DX-890 conjugated to a 30 kDa PEG moiety (conjugated at pH 6) (designed binder, single 30 kDa mPEG (MPEG-SPA30K) attached, mono-PEGylated; reaction at pH 6.0, headed 'N-Terminal-Site Modification', also called PEG30-DX-890-6.0; +30K PEG, pH 6) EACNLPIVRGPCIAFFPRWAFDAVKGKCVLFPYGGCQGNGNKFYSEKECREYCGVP
8
